Biological target: monoamine oxidase (MAO) (Rattus norvegicus, UniProt P19643)
Construct: from tissue; host or cells: rat brain homogenate (ex vivo, two hours after p.o. dosing)
Sequence (P19643 whole entry): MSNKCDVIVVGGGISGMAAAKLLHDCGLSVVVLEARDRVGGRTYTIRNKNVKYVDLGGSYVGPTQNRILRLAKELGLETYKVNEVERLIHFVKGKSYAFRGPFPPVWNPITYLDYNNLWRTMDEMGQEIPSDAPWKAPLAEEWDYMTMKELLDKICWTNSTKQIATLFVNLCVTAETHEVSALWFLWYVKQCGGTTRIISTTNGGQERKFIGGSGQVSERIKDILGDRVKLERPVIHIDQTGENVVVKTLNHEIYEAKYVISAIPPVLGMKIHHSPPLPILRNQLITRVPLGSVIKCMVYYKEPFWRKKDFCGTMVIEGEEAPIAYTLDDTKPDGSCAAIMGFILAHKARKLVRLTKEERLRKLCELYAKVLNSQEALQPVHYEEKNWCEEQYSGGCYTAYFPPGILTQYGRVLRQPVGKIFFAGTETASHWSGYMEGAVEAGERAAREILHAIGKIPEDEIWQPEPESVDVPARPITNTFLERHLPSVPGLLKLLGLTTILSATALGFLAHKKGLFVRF
Assay: MAO inhibiting activity measured in homogenates of the brain two hours after p.o. administration to rats (phenethylamine as substrate)
Format: in vivo
Conditions: rat, po, 2 h, read-out: ED50 (MAO inhibiting activity)
Reported ED50 values follow for various molecules
Write the numeric value and append its unit.

Below: 7 molecules and their reported ED50.
Cl.Cl.NCCNC(=O)c1ncccc1N [dihydrochloride] :: 5 µmol/kg
Cl.NCCNC(=O)c1cc(Br)ccn1 [hydrochloride] :: 4 µmol/kg
Cl.Cl.NCCNC(=O)c1ccccn1 [dihydrochloride] :: 1.7 µmol/kg
Cl.NCCNC(=O)c1csc(Cl)n1 [hydrochloride] :: 6 µmol/kg
Cl.NCCNC(=O)c1cc(Cl)ccn1 [hydrochloride] :: 5 µmol/kg
Cc1cc(C(=O)NCCN)no1.Cl [hydrochloride] :: 20 µmol/kg
Cl.NCCNC(=O)c1cccc(Br)n1 [hydrochloride] :: 8 µmol/kg

Next item in the queue.
Identify measured ED50 corresponding to Cl.NCCNC(=O)c1ncsc1Br [hydrochloride]
10 µmol/kg

----------
Reported LD50 values follow for various molecules
Test: toxicity (LD50), p.o. in the mouse
Settings: in vivo, po
Protocol: The MAO inhibiting activity of the compounds in accordance with the invention can be determined using standard methods. Thus, the substances to be tested were administered p.o. to rats. Two hours thereafter the animals were killed and the MAO inhibiting activity was measured in homogenates of the brain according to the method described in Biochem. Pharmacol. 12 (1963) 1439-1441, but using phenethylamine (2.10^-5 mol.1^-1) in place of tyramine as the substrate. […]
Structures can show the parent of a compound that is named as a salt.

Below: 5 molecules and their reported LD50.
Cl.NCCNC(=O)c1ccc(Cl)cn1 :: 1000 to 2000 mg/kg
Cl.Cl.NCCNC(=O)c1ccccn1 :: > 4000 mg/kg
Cl.NCCNC(=O)c1cccc(Br)n1 :: 1000 to 2000 mg/kg
Cc1cc(C(=O)NCCN)no1.Cl :: > 4000 mg/kg
Cl.NCCNC(=O)c1ncsc1Br :: 1250 to 2500 mg/kg

Identify measured LD50 corresponding to Cl.NCCNC(=O)c1cc(Cl)ccn1
1250 to 2500 mg/kg

Identify measured LD50 corresponding to Cl.Cl.NCCNC(=O)c1ncccc1N
2500 to 5000 mg/kg

Identify measured LD50 corresponding to Cl.NCCNC(=O)c1cc(Br)ccn1
1000 to 2000 mg/kg

Identify measured LD50 corresponding to NCCNC(=O)c1cccc(Cl)n1 [hydrochloride]
625 to 1250 mg/kg

Identify measured LD50 corresponding to Cl.NCCNC(=O)c1csc(Cl)n1
2500 to 5000 mg/kg
